experimentalSystem: NRAS G12C (Homo sapiens (Human), UniProt P01111+P62937, G12C)
Sequence (P01111 whole entry G12C): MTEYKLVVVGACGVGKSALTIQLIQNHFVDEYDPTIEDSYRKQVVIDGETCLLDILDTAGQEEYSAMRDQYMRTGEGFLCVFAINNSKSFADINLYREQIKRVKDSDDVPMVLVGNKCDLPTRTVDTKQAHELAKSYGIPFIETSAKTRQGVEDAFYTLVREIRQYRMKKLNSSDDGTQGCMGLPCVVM
Sequence (P62937 whole entry): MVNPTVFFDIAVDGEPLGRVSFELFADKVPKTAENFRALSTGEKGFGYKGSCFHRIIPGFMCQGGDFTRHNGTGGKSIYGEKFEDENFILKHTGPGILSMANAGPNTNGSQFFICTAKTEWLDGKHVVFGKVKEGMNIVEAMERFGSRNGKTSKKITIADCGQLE
experiment: Ras-Raf disruption/FRET/MOA assay (BRAF RBD, Cyclophilin A)
Assay type: biochemical
runParameters: read-out: NRAS G12C FRET data IC50
Experimental: Compound is present in plate wells as a 10-point 3-fold dilution series starting at a final concentration of 30 μM. After incubation at 25° C. for 3 hours, a mixture of Anti-His Eu—W1024 and anti-GST allophycocyanin is then added to assay sample wells at final concentrations of 10 nM and 50 nM, respectively, and the reaction incubated for an additional 1.5 hours. […]
pIC50: −log10 of the molar value.
Listing: pIC50 of selected compounds

| compound | pIC50 |
| --- | --- |
| CCn1c(-c2cnccc2COC)c2c3cc(ccc31)-c1cc(O)cc(c1)C[C@H](NC(=O)[C@H](C(C)C)N(C)C(=O)[C@H]1CNC[C@H]1C(F)(F)F)C(=O)N1CCC[C@H](N1)C(=O)OCC(C)(C)C2 | 6.00 to 7.00 |

Write down the reported pIC50 of CCn1c(-c2cccnc2[C@H](C)OC)c2c3cc(ccc31)-c1csc(n1)C[C@H](NC(=O)[C@H](C(C)C)N(C)C(=O)N1CC(C(C)(C)O)C1)C(=O)N1CCC[C@H](N1)C(=O)OCC(C)(C)C2 , test system: NRAS G12C (Homo sapiens (Human), UniProt P01111+P62937, G12C).
7.00 to 8.00

Write down the reported pIC50 of CCn1c(-c2cccnc2[C@H](C)OC)c2c3cc(ccc31)-c1csc(n1)C[C@H](NC(=O)[C@H](C(C)C)N1CCC3(CCN(C)C3)C1=O)C(=O)N1CCC[C@H](N1)C(=O)OCC(C)(C)C2 (stereo partly drawn) , test system: NRAS G12C (Homo sapiens (Human), UniProt P01111+P62937, G12C).
5.00 to 6.00

Write down the reported pIC50 of CCn1c(-c2cc(N3CCN(C)CC3)cnc2[C@H](C)OC)c2c3cc(ccc31)-c1csc(n1)C[C@H](NC(=O)[C@H](C(C)C)N(C)C(=O)C1OCC[C@@H]1c1ccccc1)C(=O)N1CCC[C@H](N1)C(=O)OCC(C)(C)C2 (stereo partly drawn) , test system: NRAS G12C (Homo sapiens (Human), UniProt P01111+P62937, G12C).
7.00 to 8.00

Write down the reported pIC50 of CCn1c(-c2cccnc2[C@H](C)OC)c2c3cc(ccc31)-c1cc(O)cc(c1)C[C@H](NC(=O)[C@H](C(C)C)N1CNCC1=O)C(=O)N1CCC[C@H](N1)C(=O)OCC(C)(C)C2 , test system: NRAS G12C (Homo sapiens (Human), UniProt P01111+P62937, G12C).
6.00 to 7.00
